# assay target: Genome polyprotein (dengue virus type 2, UniProt P29990)
# protocol text: flavivirus cap methylation enzyme inhibition – biochemical, confirmation dose response, primary screen (AID 588689)
# Type: functional
Calls of active or inactive are those of the source.
Each record here notes measured IC50.
test readout: IC50

* CC(=O)Oc1oc(-c2ccccc2)nc1/C=N/c1ccccc1 | 86.3 µM (active)
* CCOc1ccc2nc(N3CCCN(C(=O)Nc4ccccc4C)CC3)c(C#N)cc2c1 | 38.7 µM (active)
* CCN(CC)c1ccc(N=C2C(=O)Nc3ccccc32)cc1 | > 100 µM (active)
* COc1ccc(C(C2C(=O)CC(C)(C)CC2=O)C2C(=O)CC(C)(C)CC2=O)cc1COCC(F)(F)F | 27.7 µM (active)
* C/C(=N/Nc1ccc(C(=O)O)cc1)c1ccc(O)c(O)c1O | > 100 µM (active)
* Cc1ccccc1N1C(=O)NC(=O)/C(=C\c2cnn(-c3ccccc3)c2)C1=O | > 100 µM (active)
* O=C1NC(=O)C(=Cc2cccc(OCCOc3ccccc3)c2)C(=O)N1 | 51.2 µM (active)

* * *

# Tested on: H9c2;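 also: cell death induced by hydrogen peroxide oxidative stress; compound pretreatment for 60 min then peroxide exposure for 2 h; potency is for protecting the cells against peroxide damage rather than for killing them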;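 also: confirmatory concentration-response retest of ultra-high-throughput screening hits for modulation of myocardial damage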
# protocol text: cells
# Assay type: functional, cell-based
# test conditions: Rattus norvegicus, H9c2, Myocardium
Calls of active or inactive are those of the source.
Possible outcomes: active, inactive

- NC(=O)c1ccccc1OCC(=O)Nc1cccnc1Cl: active
- C=CCOC(=O)C1=C[C@H](c2cn(C(C)=O)c3ccccc23)C[C@H](OCc2ccc(CO)cc2)O1: active
- Cc1cc(=O)oc2cc(OCC(=O)N3CCN(C(=O)C4COc5ccccc5O4)CC3)c(Cl)cc12 (centres undefined): inactive
- CCCNC(=O)c1ccc2c(O)c(O)c(-c3ccc(C)cc3)nc2c1: inactive

* * *

# assay target: Short transient receptor potential channel 4 (Mus musculus)
# Sequence (Q9QUQ5 whole entry): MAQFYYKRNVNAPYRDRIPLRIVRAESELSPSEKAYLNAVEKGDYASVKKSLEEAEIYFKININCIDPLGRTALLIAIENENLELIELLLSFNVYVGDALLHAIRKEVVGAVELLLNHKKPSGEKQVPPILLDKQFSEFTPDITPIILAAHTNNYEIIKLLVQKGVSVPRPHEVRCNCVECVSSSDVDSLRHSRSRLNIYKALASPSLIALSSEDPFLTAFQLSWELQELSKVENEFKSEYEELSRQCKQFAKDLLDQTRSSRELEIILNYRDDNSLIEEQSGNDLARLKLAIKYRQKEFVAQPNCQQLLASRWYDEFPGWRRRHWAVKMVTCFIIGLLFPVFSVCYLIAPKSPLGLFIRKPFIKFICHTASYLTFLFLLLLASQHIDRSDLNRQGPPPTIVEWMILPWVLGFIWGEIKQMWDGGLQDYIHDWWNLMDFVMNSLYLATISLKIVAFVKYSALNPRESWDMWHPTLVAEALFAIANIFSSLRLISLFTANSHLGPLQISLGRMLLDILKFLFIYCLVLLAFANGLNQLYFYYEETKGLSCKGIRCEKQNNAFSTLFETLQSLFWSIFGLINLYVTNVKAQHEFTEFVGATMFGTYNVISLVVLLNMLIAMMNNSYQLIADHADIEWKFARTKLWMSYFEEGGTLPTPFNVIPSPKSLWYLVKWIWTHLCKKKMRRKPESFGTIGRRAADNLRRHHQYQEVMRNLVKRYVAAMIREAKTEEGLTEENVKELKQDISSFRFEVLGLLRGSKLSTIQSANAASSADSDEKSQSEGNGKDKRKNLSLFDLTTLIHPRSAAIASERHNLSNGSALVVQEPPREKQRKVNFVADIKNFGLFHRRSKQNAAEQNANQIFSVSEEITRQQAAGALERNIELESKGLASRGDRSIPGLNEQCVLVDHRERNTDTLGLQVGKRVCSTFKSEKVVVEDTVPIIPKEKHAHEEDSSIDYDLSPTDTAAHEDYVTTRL
# protocol text: calcium entry via TRPC4 opening agents – cell-based, HEK293 TRPC4/mu-opioid, Fluo-4 calcium, dose response (AID 434937)
# Assay type: functional
Activity calls are given as the source filed them.
test readout: EC50

- C[C@H]1OC[C@@H](C[N+](C)(C)C)O1: 0.188 µM (active)
- CN(C)CCCN(C(=O)c1ccc(S(=O)(=O)N2CCCCCC2)cc1)c1nc2ccc(F)cc2s1: 4.22 µM (active)
- S=C(NCCc1ccccn1)NC1CCCCC1: 6.68 µM (active)
- O=C(CCC1CCCC1)c1c(O)c2ccccc2oc1=O: 5.96 µM (active)
- Nc1cc(N2CCNCC2)ccc1[N+](=O)[O-]: 1.19 µM (active)
- CC(C)Cc1ccc(CN2CCCC(NC(=O)CCn3cnnn3)C2)cc1 (centres undefined): 4.22 µM (active)
- Cc1ccc(NC(=O)CNCC(c2ccccc2)N(C)C)cc1F (centres undefined): 0.596 µM (active)
- COc1ccc(-c2nc(CSCC(=O)NC3CCN(Cc4ccccc4)CC3)c(C)o2)cc1OC: 1.5 µM (active)
- CN(C)c1ccc(C(CNC(=O)Cc2cccc3ccccc23)N(C)C)cc1 (centres undefined): 0.944 µM (active)

* * *

# protocol text: THP-1 cell cytotoxicity, dose response, cytotoxicity control for non-replicating M. tuberculosis project (AID 489025)
# Format: functional
Calls of active or inactive are those of the source.
test readout: CC50

• Cn1c(-c2cccc([N+](=O)[O-])c2)cnc1NCc1cccc(F)c1 = > 40 µM (active)
• Clc1cccc2c1Sc1ccccc1CC2N1CCNCC1 (stereo not given) = 8.49 µM (active)
• CC(=O)N(Cc1ccc(F)cc1)C1=C(NCCc2ccccc2)C(=O)c2ccccc2C1=O = 0.67 µM (active)
• Cc1[nH]n(-c2ccc(Cl)cc2)c(=O)c1N=Nc1cccnc1 = 26.7 µM (active)
• O=C(CCC1CCCC1)c1c(O)c2ccccc2oc1=O = 23.5 µM (active)

* * *

A set of molecules tested on Glyceraldehyde-3-phosphate dehydrogenase (Homo sapiens), with measured IC50:
test readout: IC50

• O=C(Nc1cc2nn(-c3ccccc3)nc2cc1Cl)c1ccc([N+](=O)[O-])o1 = > 100 µM (not active)
• O=C1c2ccccc2CC1Sc1nnc(-c2ccco2)c(-c2ccco2)n1 (stereo not drawn) = > 100 µM (not active)
• Cc1cc(=O)oc2cc(OCC(=O)Nc3ccc(O)c(C(=O)O)c3)ccc12 = > 100 µM (not active)
• COCCCNc1nc(=O)n(-c2ccc(F)cc2)c(=O)[nH]1 = > 100 µM (not active)
• CC(=O)N1N=C(c2cccc([N+](=O)[O-])c2)CC1c1ccc(Br)cc1 (stereo not drawn) = > 100 µM (not active)
• c1ccc(-c2[nH]nc3ccccc23)cc1 = > 10 µM (inconclusive)
• COc1cccc(N2C(=O)C(Cl)=C(N3CCN[C@H](C)C3)C2=O)c1 = > 50 µM (inconclusive)
• COc1ccc(OC)c(NCc2cnc3ccccc3c2)c1 = > 100 µM (not active)

* * *

# protocol text: Luminescence Cell-Based Dose Response HTS to Identify Activators of Luciferase Translation or Activity in H4 […] Cells. [Related pubchem assays: 1829 (Project Summary), 1814 (Primary HTS)]
# Type: functional
The source made the active and inactive calls.
test readout: EC50

* COc1ccc(C(=O)OCc2csc(C)n2)c(O)c1 | > 120 µM (not active)
* COc1ccc(/C=C(/C(=O)c2cccs2)N2C=CC=CC2=C(C#N)C#N)cc1 | > 120 µM (not active)
* CCN1CCN(/C=N/c2nc(C)cs2)CC1 | 51.9 µM (active)
* O=[N+]([O-])c1ccccc1NCCOc1ccccc1 | 24 µM (active)
* O=C(CCl)Nc1cccc(S(=O)(=O)NC2=NCCC2)c1 | 62.6 µM (active)

* * *

# assay target: UniProtKB P49327
# Sequence (P49327 whole entry): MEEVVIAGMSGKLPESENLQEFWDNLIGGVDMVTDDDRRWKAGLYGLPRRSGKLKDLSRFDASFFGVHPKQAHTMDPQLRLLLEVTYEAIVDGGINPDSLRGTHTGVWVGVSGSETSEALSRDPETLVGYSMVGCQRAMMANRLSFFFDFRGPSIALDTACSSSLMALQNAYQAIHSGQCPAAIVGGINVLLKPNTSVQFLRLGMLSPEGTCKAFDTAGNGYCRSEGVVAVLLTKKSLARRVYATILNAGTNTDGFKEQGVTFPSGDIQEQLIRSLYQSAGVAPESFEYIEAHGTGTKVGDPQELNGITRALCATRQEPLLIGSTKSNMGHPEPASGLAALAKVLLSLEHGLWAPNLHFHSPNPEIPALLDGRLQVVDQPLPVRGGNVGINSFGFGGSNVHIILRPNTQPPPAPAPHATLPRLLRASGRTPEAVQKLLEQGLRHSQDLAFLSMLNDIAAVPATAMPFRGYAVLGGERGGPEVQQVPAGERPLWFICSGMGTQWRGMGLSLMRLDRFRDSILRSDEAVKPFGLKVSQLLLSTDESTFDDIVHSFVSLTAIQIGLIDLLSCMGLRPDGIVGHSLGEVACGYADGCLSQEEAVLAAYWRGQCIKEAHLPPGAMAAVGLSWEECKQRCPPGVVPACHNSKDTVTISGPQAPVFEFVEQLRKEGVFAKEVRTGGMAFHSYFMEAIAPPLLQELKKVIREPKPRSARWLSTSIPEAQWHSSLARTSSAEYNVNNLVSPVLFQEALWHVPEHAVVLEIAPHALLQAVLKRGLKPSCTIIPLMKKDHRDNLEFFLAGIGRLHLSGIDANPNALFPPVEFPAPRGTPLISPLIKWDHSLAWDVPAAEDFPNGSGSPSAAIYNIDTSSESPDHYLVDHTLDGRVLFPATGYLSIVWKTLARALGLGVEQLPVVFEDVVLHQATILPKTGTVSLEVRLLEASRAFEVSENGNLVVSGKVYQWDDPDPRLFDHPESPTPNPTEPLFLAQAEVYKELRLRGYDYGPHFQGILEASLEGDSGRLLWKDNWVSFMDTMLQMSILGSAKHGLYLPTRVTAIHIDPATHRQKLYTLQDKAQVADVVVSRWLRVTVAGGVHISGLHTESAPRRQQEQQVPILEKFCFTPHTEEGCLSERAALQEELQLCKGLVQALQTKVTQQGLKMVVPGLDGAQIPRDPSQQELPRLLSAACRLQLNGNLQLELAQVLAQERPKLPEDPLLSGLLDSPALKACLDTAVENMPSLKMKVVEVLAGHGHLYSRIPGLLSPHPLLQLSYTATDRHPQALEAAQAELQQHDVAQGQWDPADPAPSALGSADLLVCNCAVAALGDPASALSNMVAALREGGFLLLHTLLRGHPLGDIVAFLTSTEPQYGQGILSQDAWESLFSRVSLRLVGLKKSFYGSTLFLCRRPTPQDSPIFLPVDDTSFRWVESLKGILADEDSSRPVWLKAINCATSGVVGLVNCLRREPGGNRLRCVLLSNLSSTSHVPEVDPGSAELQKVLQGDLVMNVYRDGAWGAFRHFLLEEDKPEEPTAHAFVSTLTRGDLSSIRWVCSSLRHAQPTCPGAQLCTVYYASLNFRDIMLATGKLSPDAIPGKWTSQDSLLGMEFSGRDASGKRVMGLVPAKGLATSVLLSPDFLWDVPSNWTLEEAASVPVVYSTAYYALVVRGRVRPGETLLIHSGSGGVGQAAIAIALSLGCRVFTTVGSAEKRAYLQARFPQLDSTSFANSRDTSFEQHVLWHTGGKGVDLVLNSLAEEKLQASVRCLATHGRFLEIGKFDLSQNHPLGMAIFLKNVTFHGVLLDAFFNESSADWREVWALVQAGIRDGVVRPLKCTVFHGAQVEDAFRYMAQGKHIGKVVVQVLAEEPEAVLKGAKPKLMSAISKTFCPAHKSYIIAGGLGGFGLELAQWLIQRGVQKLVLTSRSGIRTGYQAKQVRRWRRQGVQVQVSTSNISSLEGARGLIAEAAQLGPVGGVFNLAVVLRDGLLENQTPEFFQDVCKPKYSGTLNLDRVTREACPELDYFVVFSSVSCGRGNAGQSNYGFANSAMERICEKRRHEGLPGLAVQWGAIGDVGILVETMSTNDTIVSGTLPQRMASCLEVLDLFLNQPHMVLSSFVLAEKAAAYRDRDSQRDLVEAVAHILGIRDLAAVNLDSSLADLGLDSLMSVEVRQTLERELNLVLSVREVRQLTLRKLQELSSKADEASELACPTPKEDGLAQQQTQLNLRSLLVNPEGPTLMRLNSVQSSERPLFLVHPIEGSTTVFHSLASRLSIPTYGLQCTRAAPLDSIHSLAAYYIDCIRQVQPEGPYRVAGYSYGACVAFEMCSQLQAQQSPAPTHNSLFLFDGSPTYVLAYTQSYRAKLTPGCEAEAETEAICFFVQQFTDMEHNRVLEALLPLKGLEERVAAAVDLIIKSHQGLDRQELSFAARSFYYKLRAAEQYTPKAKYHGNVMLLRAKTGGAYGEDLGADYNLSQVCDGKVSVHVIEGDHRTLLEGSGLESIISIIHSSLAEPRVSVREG
# protocol text: inhibition of human FAS-TE enzyme activity – biochemical, kinetic fluorescence intensity, dose response (AID 624326);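 also: rate of fluorescence rise from hydrolysis of a fluorogenic O-methyl fluorescein ester substrate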
# Assay type: functional
Activity calls are given as the source filed them.
test readout: IC50

- CCN(Cc1ccccc1)C(=O)c1cnc2ccc(S(=O)(=O)N(C)CCC#N)cc2c1O: 7.6 µM (active)
- Cc1ccc(C(=O)N/C(=C/c2ccc(-c3ccc([N+](=O)[O-])cc3)o2)C(=O)NCCCN(C)C)cc1: 5.71 µM (active)
- O=C(NCCCCc1ccccc1)c1cccc([N+](=O)[O-])c1: 8.43 µM (active)
- CCc1nc2c(OCc3ccc(Cl)cc3Cl)cccn2c1N(C=O)Cc1ccc(OC)cc1: 1.46 µM (active)
- Cc1ccc(C(=O)NCC(=O)OCc2nnc(-c3ccc([N+](=O)[O-])cc3)o2)s1: 12.7 µM (active)

* * *

# assay target: Calpain-2 catalytic subunit (Sus scrofa)
# Sequence (P43367 whole entry): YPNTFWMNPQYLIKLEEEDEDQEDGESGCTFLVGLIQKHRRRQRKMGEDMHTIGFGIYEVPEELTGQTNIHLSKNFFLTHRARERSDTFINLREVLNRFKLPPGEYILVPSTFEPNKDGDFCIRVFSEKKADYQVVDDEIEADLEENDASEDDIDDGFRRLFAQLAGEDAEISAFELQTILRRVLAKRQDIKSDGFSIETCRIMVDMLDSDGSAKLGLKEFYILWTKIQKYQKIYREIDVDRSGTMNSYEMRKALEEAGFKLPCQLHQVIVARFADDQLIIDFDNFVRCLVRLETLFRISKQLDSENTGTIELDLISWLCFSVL
# protocol text: m-calpain protease blockers, concentration series – biochemical, fluorogenic peptide substrate, dose response (AID 1420)
# Format: functional
Each record here notes measured IC50.
test readout: IC50

* Cc1ccccc1-n1nnnc1SCc1ncc(-c2ccccc2)o1 | 5.05 µM (not active)
* CC(=O)Nc1ccc(S(=O)(=O)NCC2CCC(C(=O)NCCC3=CCCCC3)CC2)cc1 (stereo unspecified) | 9.12 µM (not active)
* O=C(CCCN1C(=O)c2cccc3cccc(c23)C1=O)N1CCN(c2ccccn2)CC1 | 2.13 µM (not active)
* COc1ccccc1NC(=O)/C=C\C(=O)O | 17.4 µM (not active)
* COc1ccc2c(c1)C(=O)CC(O)(C(F)F)O2 (stereo unspecified) | 8.34 µM (not active)
* O=C(OCc1nnc(-c2ccccc2)o1)C12CC3CC(CC(Br)(C3)C1)C2 | 3.14 µM (not active)

* * *

# assay target: Streptokinase A (Streptococcus pyogenes serotype M1)
# Sequence (P10520 whole entry): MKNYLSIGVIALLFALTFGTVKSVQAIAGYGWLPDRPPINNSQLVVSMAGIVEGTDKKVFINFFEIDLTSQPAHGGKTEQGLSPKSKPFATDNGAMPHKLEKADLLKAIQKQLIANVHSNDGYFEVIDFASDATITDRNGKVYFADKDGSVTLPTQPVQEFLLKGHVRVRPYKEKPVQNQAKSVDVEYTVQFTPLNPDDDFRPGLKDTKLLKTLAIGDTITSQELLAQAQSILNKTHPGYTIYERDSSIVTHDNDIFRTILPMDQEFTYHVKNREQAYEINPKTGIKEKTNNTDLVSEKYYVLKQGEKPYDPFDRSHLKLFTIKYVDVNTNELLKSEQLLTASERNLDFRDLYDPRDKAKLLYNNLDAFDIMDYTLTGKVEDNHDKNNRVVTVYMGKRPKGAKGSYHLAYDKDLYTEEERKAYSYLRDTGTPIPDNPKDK
# protocol text: viability-normalized secreted streptokinase activity reduction – plasminogen activation absorbance, OD405, dose response (AID 1914);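 also: secreted streptokinase activity via plasminogen activation per viability signal from cell pellet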
# Assay type: functional, Streptococcus pyogenes M1 GAS
The source made the active and inactive calls.
test readout: EC50

* COc1cccc(C2CC(c3cccs3)=NN2C(=O)CSc2nc3c(cnn3-c3ccc(F)cc3)c(=O)[nH]2)c1OC (stereo not given) | > 50 µM (not active)
* Cc1c2ccncc2c(C)c2c1[nH]c1ccccc12 | > 150 µM (not active)
* COc1ccc(C#Cc2ccc3c(=O)c4ccccc4n(C)c3c2)cc1 | 110 µM (active)
* CC(=O)OCC1=C(C(=O)O)N2C(=O)C(NC(=O)c3ccc(COc4cccc(Cl)c4Cl)o3)C2SC1 (stereo not given) | 12.6 µM (active)
* O=C(Nc1nnc(-c2ccncc2)o1)c1ccc2ccccc2c1 | > 150 µM (not active)
* Cc1ccc2nc(-c3ccc(N)cc3)sc2c1 | > 150 µM (not active)
* c1ccc(-c2nnc(-c3c[nH]c4ccccc34)nc2-c2ccccc2)cc1 | 20.1 µM (active)
* FC(F)(F)c1cccc(CNC2c3ccccc3-c3ccccc32)c1 | 19 µM (active)
* Cc1cccc(CN2CCCC(C(=O)c3ccc4c5c(cccc35)CC4)C2)n1 (stereo not given) | > 150 µM (not active)
* Cc1cc(C)c(COc2ccc(/C=N/n3c(C)nnc3S)cc2)c(C)c1 | 12 µM (active)
* Cc1nc2c(C(=O)NCc3ccc4c(c3)OCO4)cnn2c(C)c1Cc1ccc(F)cc1Cl | 42.9 µM (active)
* CCOC(=O)c1csc(N/N=C2\CCCc3ccccc32)n1 | > 150 µM (not active)
* CC12CC3(C)CC(C)(C1)CC(C(=O)NC1=NCCS1)(C2)C3 | > 150 µM (not active)
* Cc1ccc2ccc(C(Nc3cccc(C(F)(F)F)c3)c3cccnc3)c(O)c2n1 (stereo not given) | > 150 µM (not active)
* O=C1NC(=O)N(Cc2ccccc2)C(=O)/C1=C/NNC(=O)c1ccccc1 | > 150 µM (not active)
